The origin of these recorded values is patent US20260209362A1.

Molecular target: T1, biotinylated recombinant mouse IL-12Rβ2 (mouse, UniProt P97378 24-637, random biotinylated)
T1 construct: Recombinant protein produced in-house, biotinylated; also called mIL-12RB2; mouse IL-12RB2
T1 sequence: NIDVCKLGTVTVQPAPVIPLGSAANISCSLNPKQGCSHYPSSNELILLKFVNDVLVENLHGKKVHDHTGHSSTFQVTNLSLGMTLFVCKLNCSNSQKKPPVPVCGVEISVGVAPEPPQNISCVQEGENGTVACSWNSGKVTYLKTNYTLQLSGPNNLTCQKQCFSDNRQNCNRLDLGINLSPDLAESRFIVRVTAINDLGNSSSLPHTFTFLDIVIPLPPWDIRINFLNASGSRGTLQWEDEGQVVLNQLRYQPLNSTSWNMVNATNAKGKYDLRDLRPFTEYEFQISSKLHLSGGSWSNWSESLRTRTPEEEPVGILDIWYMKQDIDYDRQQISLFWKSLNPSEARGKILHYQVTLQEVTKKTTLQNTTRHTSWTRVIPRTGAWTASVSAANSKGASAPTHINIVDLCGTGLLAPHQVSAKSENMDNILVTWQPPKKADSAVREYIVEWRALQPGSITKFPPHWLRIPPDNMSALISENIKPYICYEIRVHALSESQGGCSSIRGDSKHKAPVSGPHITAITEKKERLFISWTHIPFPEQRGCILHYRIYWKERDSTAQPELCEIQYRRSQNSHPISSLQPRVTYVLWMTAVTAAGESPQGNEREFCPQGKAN
Experiment: ELISA, periplasmic extract on biotinylated mIL-12Rβ2, signal over control wells
metric name: ELISA binding mIL-12RB2/control (ratio)
Answer format: numeric, ratio implied, no suffix.

Assign ELISA binding mIL-12RB2/control to the following record: anti-IL-12Rβ2 VHH clone 20450 (VHH, not shown: small tags and cut ends, tested as periplasmic extract; also called 2CRM61) VHH: QVQLQESGGGLVQPGGSLRLSCAASGFTISNYAMSWVRQAPGKGLEWVSSIGSNIASTNYADSVKGRFTISRDNAKNTLYLQMNSLKPEDTAVYYCAKASQNHSPPGQGTQVTVSS 18

Report ELISA binding mIL-12RB2/control, nothing else, for this binder: anti-IL-12Rβ2 VHH clone 20454 (VHH, not shown: small tags and cut ends, tested as periplasmic extract; also called 2CRM93) VHH: QVQLQESGGGLVQAGDSLRLSCTASGSIFAIDDMYWYRQAPGKQREFVAYITATNSANYLDSVNGRFTISRDNAENSVYLQMNSLKPEDTVVYYCNAKQIVGFQIDEYWGQGTQVTVSS 5.04
